# Protocol Summary: Partition coefficient of the compound, log P
# Format: physicochemical
# Settings: octanol/water
Measured Property: logP

CCc1cc(-c2n[nH]cc2Oc2ccccc2)c(O)cc1O
3.93
Nc1sc2c(c1C(=O)Nc1cccc(Cl)c1)CCCC2
4.64
Cc1cccc(C(=N)NOC(=O)c2ccc(C)cc2Cl)c1
5.42
